# MEASUREMENT TARGET: glucokinase (GK) (Homo sapiens, UniProt P35557)
# Construct: I.D. No. 1 corresponds to residues 12-465 of glucokinase
# Sequence (P35557 with tags, fused parts or gaps isoform P35557-2): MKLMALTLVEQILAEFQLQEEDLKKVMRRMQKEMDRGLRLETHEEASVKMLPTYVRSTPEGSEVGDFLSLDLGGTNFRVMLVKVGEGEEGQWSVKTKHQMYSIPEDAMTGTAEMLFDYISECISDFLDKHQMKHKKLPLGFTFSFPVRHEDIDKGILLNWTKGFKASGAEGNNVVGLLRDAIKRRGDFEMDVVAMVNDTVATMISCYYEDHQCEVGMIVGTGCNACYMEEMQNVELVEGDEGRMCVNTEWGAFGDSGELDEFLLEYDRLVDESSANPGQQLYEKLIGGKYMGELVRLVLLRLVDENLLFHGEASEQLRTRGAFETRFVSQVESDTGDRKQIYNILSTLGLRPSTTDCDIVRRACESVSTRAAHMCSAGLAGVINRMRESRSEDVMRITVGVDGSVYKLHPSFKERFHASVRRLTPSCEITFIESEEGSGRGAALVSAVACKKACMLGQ
# TEST SUMMARY: enzymatic glucokinase activity assay (ATP consumption, KinaseGlo luminescence)
# MEASUREMENT CONDITIONS: Against GK; Kact = concentration giving 50% of maximal increase in GK activity; 5 μM ATP, 5 mM Glucose, 60 min room temperature; values given as bins; read-out: pKact
# Description: The activity of compounds as glucokinase activators may be assayed in vitro, in vivo or in a cell line. Provided below is an enzymatic glucokinase activity assay. Purified glucokinase may be obtained as follows. […] Recombinant protein may be isolated from cellular extracts by passage over Sepharose Q Fast Flow resin (Pharmacia). […] The purity of GK may be determined on denaturing SDS-PAGE gel. […]
pEC50: −log10 of the molar value.
Listing of recorded pEC50 by entry.

{"MOLECULE": "CS(=O)(=O)c1ccc2c(=O)n(C(CC3CCCCC3)C(=O)Nc3ccc(C(=O)O)cn3)cnc2c1 (stereo not shown)", "pEC50": "≤ 5.70"}
{"MOLECULE": "NC(=O)c1ccc(NC(=O)C(CC2CCCCC2)n2cnc3cc(S(=O)(=O)C4CC4)ccc3c2=O)nc1 (stereo not shown)", "pEC50": "≥ 6.40"}
{"MOLECULE": "O=C(Nc1ccccn1)C(CC1CCCCC1)n1cnc2ccc(F)cc2c1=O (stereo not shown)", "pEC50": "≤ 5.70"}
{"MOLECULE": "CS(=O)(=O)c1csc2c(=O)n(C(CC3CCCCC3)C(=O)Nc3ccc(C(N)=O)cn3)cnc12 (stereo not shown)", "pEC50": "5.80 to 6.00"}
{"MOLECULE": "O=C(Nc1ncc(Cl)s1)C(CC1CCCCC1)n1c(=O)[nH]c2ccc(F)cc2c1=O (stereo not shown)", "pEC50": "≤ 5.70"}
{"MOLECULE": "CS(=O)(=O)c1ccc2c(=O)n(C(Cc3c(F)cccc3F)C(=O)Nc3ccc(Cl)cn3)cnc2c1 (stereo not shown)", "pEC50": "5.80 to 6.00"}
{"MOLECULE": "O=C(Nc1nc2ccccc2s1)C(CC1CCCCC1)n1cnc2ccc(F)cc2c1=O (stereo not shown)", "pEC50": "6.10 to 6.30"}
{"MOLECULE": "CS(=O)(=O)c1ccc2c(=O)n(C(CC3CCCCC3)C(=O)Nc3ncc(Cl)s3)c(=O)[nH]c2c1 (stereo not shown)", "pEC50": "6.10 to 6.30"}
{"MOLECULE": "CC(C)S(=O)(=O)c1ccc2ncn(C(CC3CCCCC3)C(=O)Nc3ccc(Cl)cn3)c(=O)c2c1 (stereo not shown)", "pEC50": "6.10 to 6.30"}
{"MOLECULE": "COC(=O)c1ccc(NC(=O)[C@H](CC2CCCCC2)n2cnc3ccc(F)cc3c2=O)nc1", "pEC50": "5.80 to 6.00"}
{"MOLECULE": "CCOC(=O)CCc1ccc(NC(=O)C(CC2CCCCC2)n2cnc3cc(S(C)(=O)=O)ccc3c2=O)nc1 (stereo not shown)", "pEC50": "≤ 5.70"}
{"MOLECULE": "O=C(NC1CC1)c1ccc2c(=O)n(C(CC3CCCCC3)C(=O)Nc3ncc(Cl)s3)cnc2c1 (stereo not shown)", "pEC50": "≥ 6.40"}
{"MOLECULE": "NC(=O)c1ccc(NC(=O)C(CC2CCCCC2)n2cnc3cc(C(=O)NC4CC4)ccc3c2=O)nc1 (stereo not shown)", "pEC50": "≥ 6.40"}
{"MOLECULE": "CS(=O)(=O)c1csc2c(=O)n(C(CC3CCCCC3)C(=O)Nc3ccc(Cl)cn3)cnc12 (stereo not shown)", "pEC50": "5.80 to 6.00"}
{"MOLECULE": "Cn1c(=O)n(C(CC2CCCCC2)C(=O)Nc2nccs2)c(=O)c2cc(Cl)ccc21 (stereo not shown)", "pEC50": "≤ 5.70"}
{"MOLECULE": "CS(=O)(=O)c1ccc2c(=O)n(C(CC3CCCCC3)C(=O)Nc3ccccn3)cnc2c1 (stereo not shown)", "pEC50": "≤ 5.70"}
